Biological target: Trypsin (Homo sapiens, UniProt P07477+P07478+P35030)
Experiment: Inhibition of human trypsin using Nalpha-benzoyl-DL-R-pNA as substrate preincubated for 15 mins followed by substrate addition and measured every 15 secs for 5 mins
Type: protein assay
measure name: IC50

CCC[C@H](NC(=O)OC(C)(C)C)C(=O)N1CCC[C@H]1C(=O)NC(C(C)C)P(=O)(Oc1ccccc1)Oc1ccccc1 (mixture of isomers) :: > 500 µM
CC(C)C(NC(=O)[C@@H]1CCCN1C(=O)[C@@H](NC(=O)OC(C)(C)C)C(C)C)C(=O)c1nc2ccccc2s1 (mixture of isomers) :: > 500 µM

Now consider the entry below.
Input: Please provide the recorded IC50 for CCC(C)C(NC(=O)[C@@H]1CCCN1C(=O)[C@@H](NC(=O)OC(C)(C)C)C(C)(C)C)P(=O)(Oc1ccccc1)Oc1ccccc1 (mixture of isomers) , tested on Trypsin (Homo sapiens, UniProt P07477+P07478+P35030).
Output: > 500 µM

* * *

Test: Inhibition of bovine pancreas chymotrypsin using AAPF-pNA as substrate preincubated for 15 mins followed by substrate addition and measured every 15 secs for 5 mins
Set-up: species or system Bos taurus
measure name: IC50

These solved cases illustrate the format of a correct answer.
CCC(=O)C(=O)C(NC(=O)[C@@H]1CCCN1C(=O)[C@@H](NC(=O)OC(C)(C)C)C(C)C)C(C)C (mixture of isomers) :: > 500 µM
CC(C)C(NC(=O)[C@@H]1CCCN1C(=O)[C@@H](NC(=O)OC(C)(C)C)C(C)C)C(=O)C(=O)C1CC1 (mixture of isomers) :: > 500 µM
CCCC(NC(=O)[C@@H]1CCCN1C(=O)[C@@H](NC(=O)OC(C)(C)C)C(C)C)C(=O)c1nccs1 (stereo not given in full) :: > 500 µM

Input: // query IC50 value for entry CCC(C)C(NC(=O)[C@@H]1CCCN1C(=O)[C@@H](NC(=O)OC(C)(C)C)[C@@H](C)CC)P(=O)(Oc1ccccc1)Oc1ccccc1 (mixture of isomers)
Output: 1.28 µM

Input: // query IC50 value for entry CCCC(NC(=O)[C@@H]1CCCN1C(=O)[C@@H](NC(=O)OC(C)(C)C)C(C)C)P(=O)(Oc1ccccc1)Oc1ccccc1 (mixture of isomers)
Output: > 500 µM

Input: // query IC50 value for entry CC(=O)C(=O)C(NC(=O)[C@@H]1CCCN1C(=O)[C@@H](NC(=O)OC(C)(C)C)C(C)C)C(C)C (mixture of isomers)
Output: > 500 µM

Input: // query IC50 value for entry CCC(C)C(NC(=O)[C@@H]1CCCN1C(=O)[C@@H](NC(=O)OC(C)(C)C)C(C)(C)C)P(=O)(Oc1ccccc1)Oc1ccccc1 (mixture of isomers)
Output: 0.53 µM

Input: // query IC50 value for entry CC(C)C(NC(=O)[C@@H]1CCCN1C(=O)[C@@H](NC(=O)OC(C)(C)C)C(C)C)P(=O)(Oc1ccccc1)Oc1ccccc1 (stereo not given in full)
Output: > 500 µM

Input: // query IC50 value for entry CCC[C@H](NC(=O)OC(C)(C)C)C(=O)N1CCC[C@H]1C(=O)NC(C(C)C)P(=O)(Oc1ccccc1)Oc1ccccc1 (mixture of isomers)
Output: > 500 µM

Input: // query IC50 value for entry CC[C@H](C)[C@H](NC(=O)OC(C)(C)C)C(=O)N1CCC[C@H]1C(=O)NC(C(C)C)P(=O)(Oc1ccccc1)Oc1ccccc1 (mixture of isomers)
Output: > 500 µM

Input: // query IC50 value for entry CC(C)C(NC(=O)[C@@H]1CCCN1C(=O)[C@@H](NC(=O)OC(C)(C)C)C(C)C)C(=O)c1nc2ccccc2s1 (mixture of isomers)
Output: > 500 µM

Input: // query IC50 value for entry CC(C)[C@H](NC(=O)OC(C)(C)C)C(=O)N1CCC[C@H]1C(=O)NC(C(C)(C)C)P(=O)(Oc1ccccc1)Oc1ccccc1 (mixture of isomers)
Output: > 500 µM

Input: // query IC50 value for entry CC(C)C(NC(=O)[C@@H]1CCCN1C(=O)[C@@H](NC(=O)OC(C)(C)C)C(C)(C)C)P(=O)(Oc1ccccc1)Oc1ccccc1 (mixture of isomers)
Output: > 500 µM

Input: // query IC50 value for entry CCC(C)C(NC(=O)[C@@H]1CCCN1C(=O)[C@@H](NC(=O)OC(C)(C)C)C(C)C)P(=O)(Oc1ccccc1)Oc1ccccc1 (mixture of isomers)
Output: 38.5 µM

Input: // query IC50 value for entry CCC(C)C(NC(=O)[C@@H]1CCCN1C(=O)[C@@H](NC(=O)OC(C)(C)C)C(C)(C)C)C(=O)c1nc2ccccc2s1 (mixture of isomers)
Output: > 500 µM

Provenance of the data: ChEMBL document CHEMBL4393742
